target: Vitamin D3 receptor (Homo sapiens) (UniProt P11473); assay: Inhibitors of the vitamin D receptor (VDR): qHTS; conditions: VDR-SRC2-3 peptide fluorescence polarization, 2 h; stronger effect = lower value; also: % is scaled to controls: 0 for no effect and ±100 for the full control effect
Sequence (P11473 whole entry, looked up): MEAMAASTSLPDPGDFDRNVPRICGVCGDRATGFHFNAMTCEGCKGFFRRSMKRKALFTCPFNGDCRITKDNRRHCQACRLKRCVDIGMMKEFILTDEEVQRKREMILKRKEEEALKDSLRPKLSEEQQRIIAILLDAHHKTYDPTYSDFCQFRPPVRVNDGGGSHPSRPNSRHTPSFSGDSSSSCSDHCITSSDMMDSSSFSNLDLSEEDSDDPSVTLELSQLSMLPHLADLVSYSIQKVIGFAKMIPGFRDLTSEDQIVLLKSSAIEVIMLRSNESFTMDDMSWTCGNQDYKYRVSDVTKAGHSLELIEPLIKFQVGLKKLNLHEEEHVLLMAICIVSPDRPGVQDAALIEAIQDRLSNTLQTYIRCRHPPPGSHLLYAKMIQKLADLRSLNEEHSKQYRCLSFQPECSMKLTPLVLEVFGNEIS
The campaign covered roughly 400,000 compounds. About 3,700 (0.93%) were called active. About 3% were inconclusive and are not listed. What follows is part of a selection rich in actives, with near analogues and random picks from the rest.
Assignment: determine reported max response, negative = inhibition for the given compounds.
Numbers only, in %.

- compound: "CN1[C@H]2CC(OC(=O)[C@@H](CO)c3ccccc3)C[C@H]1[C@H]1O[C@H]12 (stereo not given in full)"
  measurement-unit: "%"
  max response, negative = inhibition: 7.07

Could you report max response, negative = inhibition for every entry in the following list?
1. COc1ccc(NS(=O)(=O)c2ccc(N3CCOCC3)c(NC(=O)/C=C/C(=O)O)c2)cc1
2. COc1cccc2c1cc1c(=O)n(CC(=O)N3CCN(c4cccc(Cl)c4)CC3)nc(C)n12
3. NCCCNC(=S)NCCCN(Cc1ccc(Cl)cc1)c1ccc(Br)cn1
4. COc1ccnc2c1c(=O)n(Cc1cccc(F)c1)c(=O)n2C

1.49
-15.1
-24.7
0.374
